Origin of the recorded values: patent US20240132431A1

assay.target: Bcl-2 protein (Recombinant Human Bcl-2 Protein) (Homo sapiens, UniProt P10415)
Construct: purchased Novus NBP2-34889
protocol.notes: Binding evaluation of mixture library compounds to Bcl-2 using AS-MS (affinity selection mass spectrometry)
run.conditions: n = 1
parameter: ASMS ratio (%)
One number for each entry, in %.

These recorded examples may help you get a feel for the data.
# compound, ASMS ratio (%)
rows = [
    ("CCOc1cncc(-c2cc(CN3CCN(c4ccc(C(=O)NS(=O)(=O)c5ccc(NCCSc6ccccc6)c(C(F)(F)F)c5)nn4)CC3)cc(OCC)c2)c1 [B2R082-01]", 0.0),
    ("CCOc1cccc(-c2cc(CN3CCN(c4ccc(C(=O)NS(=O)(=O)c5ccc(NCCSc6ccccc6)c(C(F)(F)F)c5)cc4)CC3)cc(OC(C)C)c2)c1 [B2R057-01]", 5.7),
    ("CCOc1cncc(-c2cc(OC)c(CN3CCN(c4ccc(C(=O)NS(=O)(=O)c5ccc(NCCSc6ccccc6)c(C(F)(F)F)c5)cc4)CC3)c(OC)c2)c1 [B2R060-01]", 3.9),
    ("CCOc1cncc(-c2cc(CN3CCN(c4ccc(C(=O)NS(=O)(=O)C(C)(C)C)cc4)CC3)cc(OC(C)C)c2)c1 [B2L058-01]", 0.0),
    ("CCOc1cccc(-c2csc(CN3CCN(c4ccc(C(=O)NS(=O)(=O)CCC(F)(F)F)nn4)CC3)c2)c1 [B2N093-01]", 0.0),
]

List reported ASMS ratio (%) for each of these compounds:
1. CCOc1cccc(-c2ccc(CN3CCN(c4ccc(C(=O)NS(C)(=O)=O)nn4)CC3)cc2F)c1 [B2I077-01]
2. CCOc1cncc(-c2cc(CN3CCN(c4ccc(C(=O)NS(C)(=O)=O)nn4)CC3)cc(C(F)(F)F)c2)c1 [B2I088-01]

1. 0.0
2. 0.0

---

Provide the recorded ASMS ratio (%) for the entries that follow.
assay.target: Bcl-2 protein (Recombinant Human Bcl-2 Protein) (Homo sapiens)
Construct: purchased Novus NBP2-34889
protocol.notes: Binding evaluation of mixture library compounds to Bcl-2 using AS-MS (affinity selection mass spectrometry)
run.conditions: n = 1
One number for each entry, in %.

# molecule, assay.target, measured
rows = [
    ("CCOc1cncc(-c2ccc(CN3CCN(c4ccc(C(=O)NS(=O)(=O)C(C)(C)C)nn4)CC3)c3ccccc23)c1 [B2L092-01]", "Bcl-2 protein (Recombinant Human Bcl-2 Protein) (Homo sapiens)", 5.5),
    ("CCOc1cccc(C#Cc2ccccc2CN2CCN(c3ccc(C(=O)NS(=O)(=O)c4ccc(NCCSc5ccccc5)c(C(F)(F)F)c4)nn3)CC2)c1 [B2R095-01]", "Bcl-2 protein (Recombinant Human Bcl-2 Protein) (Homo sapiens)", 42.2),
    ("CCOc1cncc(-c2ccc(CN3CCN(c4ccc(C(=O)NS(=O)(=O)c5ccc(NCCSc6ccccc6)c(C(F)(F)F)c5)nn4)CC3)c(OC)c2)c1 [B2R080-01]", "Bcl-2 protein (Recombinant Human Bcl-2 Protein) (Homo sapiens)", 16.7),
]

Give one value of ASMS ratio (%) per listed molecule.
1. CCOc1cncc(C#Cc2cc(C(=O)N3CCN(c4ccc(C(=O)NS(=O)(=O)CCC(F)(F)F)cc4)CC3)cc(C(F)(F)F)c2)c1 [B2N042-01]
2. CCOc1cncc(-c2cnn(-c3cc(C(=O)N4CCN(c5ccc(C(=O)NS(=O)(=O)CCC(F)(F)F)cc5)CC4)cc(C(F)(F)F)c3)c2)c1 [B2N044-01]
3. CCOc1cccc(-c2ccc(CN3CCN(c4ccc(C(=O)NS(=O)(=O)c5ccc(NCCSc6ccccc6)c(C(F)(F)F)c5)nn4)CC3)cc2C)c1 [B2R073-01]

0.0
0.2
24.0

---

I'd be grateful if you could share measured pKd for these entries.
assay.target: human Bcl-2 protein (Homo sapiens, UniProt P10415)
Construct: purchased Novus Biologicals
Sequence (P10415 whole entry): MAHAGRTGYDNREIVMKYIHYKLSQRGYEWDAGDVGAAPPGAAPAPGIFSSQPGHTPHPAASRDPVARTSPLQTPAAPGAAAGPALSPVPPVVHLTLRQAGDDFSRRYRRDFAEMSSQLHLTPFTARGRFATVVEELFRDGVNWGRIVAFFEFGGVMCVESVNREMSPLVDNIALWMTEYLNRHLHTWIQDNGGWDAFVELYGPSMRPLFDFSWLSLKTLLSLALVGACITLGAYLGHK
protocol.notes: Binding evaluation of compounds to Bcl-2 by surface plasmon resonance (SPR)
run.conditions: binding to Bcl-2, compounds evaluated before library synthesis, read-out: KD
Give bare numbers, as −log10 of the molar value.

# structure.smiles.string, assay.target, measured
records = [
    ("CCOc1cccc(-c2ccccc2CN2CCN(c3ccc(C(=O)NS(=O)(=O)c4ccc(NCCSc5ccccc5)c([N+](=O)[O-])c4)cc3)CC2)c1", "human Bcl-2 protein (Homo sapiens, UniProt P10415)", 5.92),
]

Next compound, please.
May I ask what pKd has been recorded for CCOc1cncc(-c2ccccc2CN2CCN(c3ccc(C(=O)NS(=O)(=O)c4ccc(NCCSc5ccccc5)c([N+](=O)[O-])c4)cc3)CC2)c1 ?
5.09

---

assay.target: Bcl-2 protein (Recombinant Human Bcl-2 Protein) (Homo sapiens, UniProt P10415)
Construct: purchased Novus NBP2-34889
protocol.notes: Binding evaluation of mixture library compounds to Bcl-2 using AS-MS (affinity selection mass spectrometry)
run.conditions: AS-MS on the mixture of 1200 library compounds; ASMS Ratio(%)=(A−C)/B×100; replicate n = 1
Record form. Attribute: ASMS ratio (%) n = 1. Fill in for each entry.
Give bare numbers, in %.

Some entries whose results are on file:
# compound, assay.target, ASMS ratio (%) n = 1
rows = [
    ("CCOc1cccc(-c2csc(C(=O)N3CCN(c4ccc(C(=O)N(CC)CC)nn4)CC3)c2)c1 [B4J001-01]", "Bcl-2 protein (Recombinant Human Bcl-2 Protein) (Homo sapiens, UniProt P10415)", 0.0),
    ("CCOc1cncc(-c2csc(CN3CCN(c4ccc(C(=O)N(C)CC56CC7CC(CC(C7)C5)C6)nn4)CC3)c2)c1 [B3A094-01]", "Bcl-2 protein (Recombinant Human Bcl-2 Protein) (Homo sapiens, UniProt P10415)", 3.7),
    ("CCOc1cncc(-c2ccc(CN3CCN(c4ccc(C(=O)Nc5ccc(OC)cc5)cc4)CC3)c3ccccc23)c1 [B1O066-01]", "Bcl-2 protein (Recombinant Human Bcl-2 Protein) (Homo sapiens, UniProt P10415)", 12.1),
]

Next compound, ASMS ratio (%) n = 1 to be filled in.
Can you share its ASMS ratio (%) n = 1? I mean this compound: CCOc1cncc(-c2csc(CN3CCN(c4ccc(C(=O)N(C)CC56CC7CC(CC(C7)C5)C6)cc4)CC3)c2)c1 [B3A068-01]
1.4

---

Could you please report measured ASMS ratio (%) n = 1 for the items listed next?
assay.target: Bcl-2 protein (Recombinant Human Bcl-2 Protein) (Homo sapiens, UniProt P10415)
Construct: purchased Novus NBP2-34889
protocol.notes: Binding evaluation of mixture library compounds to Bcl-2 using AS-MS (affinity selection mass spectrometry)
run.conditions: AS-MS, mixture library, Bcl-2; replicate n = 1; ASMS Ratio(%)=(A−C)/B×100
Numbers only, in %.

Here's what some known entries look like.
# molecule, ASMS ratio (%) n = 1
rows = [
    ("CCOc1cccc(C#Cc2cncc(C(=O)N3CCN(c4ccc(C(=O)NS(C)(=O)=O)nn4)CC3)c2)c1 [B2I009-01]", 0.0),
    ("CCOc1cccc(-c2ccccc2CCC(=O)N2CCN(c3ccc(C(=O)NS(=O)(=O)CC45CC6CC(CC(C6)C4)C5)nn3)CC2)c1 [B2A011-01]", 9.0),
    ("CCOc1cccc(-c2cc(OC)c(CN3CCN(c4ccc(C(=O)NS(=O)(=O)c5ccc(NCCSc6ccccc6)c([N+](=O)[O-])c5)cc4)CC3)c(OC)c2)c1 [B2Q059-01]", 9.8),
    ("CCOc1cccc(-c2cc(CN3CCN(c4ccc(C(=O)NS(=O)(=O)c5ccc(NCCSc6ccccc6)c([N+](=O)[O-])c5)nn4)CC3)cc(OC(F)(F)F)c2)c1 [B2Q089-01]", 25.0),
    ("CCOc1cncc(-c2ccc(C(=O)N3CCN(c4ccc(C(=O)NS(=O)(=O)c5ccc(NCCSc6ccccc6)c([N+](=O)[O-])c5)cc4)CC3)c3ccccc23)c1 [B2Q036-01]", 0.0),
]

Next item in the queue.
State the recorded ASMS ratio (%) n = 1 for this entry: CCOc1cncc(-c2ccc(CN3CCN(c4ccc(C(=O)NS(=O)(=O)c5ccc(NCCSc6ccccc6)c([N+](=O)[O-])c5)cc4)CC3)c(CC)c2)c1 [B2Q050-01]
0.0

---

assay.target: Bcl-2 protein (Recombinant Human Bcl-2 Protein) (Homo sapiens, UniProt P10415)
Construct: purchased Novus NBP2-34889
protocol.notes: Binding evaluation of mixture library compounds to Bcl-2 using AS-MS (affinity selection mass spectrometry)
run.conditions: AS-MS, mixture library, Bcl-2; replicate n = 1; ASMS Ratio(%)=(A−C)/B×100
parameter: ASMS ratio (%) n = 1
Remember to follow the number with its unit.

Examples from the recorded data:
# structure.smiles.string, ASMS ratio (%) n = 1
rows = [
    ("CCOc1cccc(-c2ccc(CN3CCN(c4ccc(C(=O)N(CC)CC)cc4)CC3)c3ccccc23)c1", "0.0%"),
    ("CCOc1cncc(-c2cc(C(=O)N3CCN(c4ccc(C(=O)NS(C)(=O)=O)nn4)CC3)cc(C(C)(C)C)c2)c1", "0.0%"),
    ("CCOc1cccc(-c2cnn(-c3cc(C(=O)N4CCN(c5ccc(C(=O)NS(=O)(=O)CC67CC8CC(CC(C8)C6)C7)cc5)CC4)cc(C(F)(F)F)c3)c2)c1", "14.0%"),
    ("CCOc1cccc(-c2cc(C(=O)N3CCN(c4ccc(C(=O)NS(=O)(=O)c5ccc(NCCSc6ccccc6)c([N+](=O)[O-])c5)cc4)CC3)cc(C(F)(F)F)c2)c1", "7.2%"),
    ("CCOc1cccc(-c2csc(CN3CCN(c4ccc(C(=O)NS(=O)(=O)CC56CC7CC(CC(C7)C5)C6)cc4)CC3)c2)c1", "0.0%"),
]

Batch of 3 molecules: report ASMS ratio (%) n = 1 for each.
1. CCOc1cccc(-c2csc(C(=O)N3CCN(c4ccc(C(=O)NS(=O)(=O)c5ccc(NCCSc6ccccc6)c([N+](=O)[O-])c5)cc4)CC3)c2)c1
2. CCOc1cccc(-c2ccc(C(=O)N3CCN(c4ccc(C(=O)NS(=O)(=O)c5ccc(NCCSc6ccccc6)c([N+](=O)[O-])c5)cc4)CC3)cc2F)c1
3. CCOc1cccc(-c2ccc(CN3CCN(c4ccc(C(=O)NS(=O)(=O)c5ccc(NCCSc6ccccc6)c([N+](=O)[O-])c5)nn4)CC3)c(CC)c2)c1

0.0%
0.2%
0.0%
